Quick list: max response per entry.
- Protocol Text: qHTS Assay for Lipid Storage Modulators (AID 1519)
- Condition Context: Drosophila S3 cells, BODIPY lipid droplet/cell ratio, laser cytometry; measured here: lipid channel max response; cells loaded with oleic acid
Inconclusive results are not listed.
Readout: max response (%)

Smiles: COc1ccc(C(=O)N2CCC3(CCN(Cc4ccccc4OC)CC3)CC2)cc1
Readout: max response
Measure Unit: %
Assay Result: 16.6

Smiles: CC(C)CN1CCCC2(CCN(C(=O)c3cnccn3)CC2)C1
Readout: max response
Measure Unit: %
Assay Result: 9.23

Smiles: FC(F)(F)c1ccccc1-c1cncnc1NCCN1CCOCC1
Readout: max response
Measure Unit: %
Assay Result: 13.3

Smiles: CS(=O)(=O)N1CCC[C@@]2(CCN(Cc3ccc(C#N)cc3)C2)C1
Readout: max response
Measure Unit: %
Assay Result: -0.755

Smiles: CN(C)c1ccc(-c2nc(NCc3cccnc3)c3ccccc3n2)cc1
Readout: max response
Measure Unit: %
Assay Result: -5.05

Smiles: CN(C)C(=O)c1ccc(-c2ccc3ncnc(NC4CCNCC4)c3c2)cc1
Readout: max response
Measure Unit: %
Assay Result: 16.5

* * *

- Protocol Text: qHTS Assay for Lipid Storage Modulators (AID 1519)
- Condition Context: Drosophila S3 cells, BODIPY lipid droplet/cell ratio, laser cytometry; measured here: lipid channel max response; cells loaded with oleic acid
- Description: NIH Molecular Libraries Probe Production Centers Network [MLPCN] NIH Chemical Genomics Center [NCGC] Assay Submitter (PI): Beller, Mathias; Max-Planck-Institut fur Biophysikalische Chemie […] We dispensed 4 uL of cells at 1.25 x 10^6 cells/mL into LoBase Aurora COC 1,536-well plates (black walled, clear bottom) with a bottle-valve solenoid-based dispenser (Aurora) to obtain 5,000 cells/well. […] The ratio of the total intensity in PMT channel 1 over total intensity of channel 3 was also calculated. […]
Records with an inconclusive call do not appear.

Molecule: COCC(=O)N1CCC[C@@]2(CCN(c3ccccc3)C2)C1
Measure Unit: %
max response: 18
--
Molecule: O=C(c1csnn1)N1CCC2(CCN(Cc3ccccc3)CC2)CC1
Measure Unit: %
max response: 1.17
--
Molecule: CN1CCN(c2ncncc2-c2ccccc2Cl)CC1
Measure Unit: %
max response: 3.53
--
Molecule: Cc1ccccc1-c1cc(-n2ccnc2)ncn1
Measure Unit: %
max response: 17.5
--
Molecule: O=C(O)/C=C\c1ccc(Cn2ccnc2)cc1
Measure Unit: %
max response: -3.7
--
Molecule: COc1ccccc1CN1CCCC2(CCN(C(=O)c3cc(C(F)(F)F)cc(C(F)(F)F)c3)CC2)C1
Measure Unit: %
max response: 1.79
--
Molecule: COCC(=O)N1CCC2(CCCN(c3ccncc3)C2)CC1
Measure Unit: %
max response: 0.42
--
Molecule: O=C(c1ccncc1)N1CCC2(CCCN(Cc3ccncc3)C2)CC1
Measure Unit: %
max response: 8.27
--
Molecule: CN(C)Cc1ccccc1-c1ccc2ncnc(NC3CC3)c2c1
Measure Unit: %
max response: 24.1
--
Molecule: CC(=O)N1CCC2(CC1)CN(c1cccc(-c3ccccc3)c1)C2
Measure Unit: %
max response: 17.4
--
Molecule: COCC(=O)N1CCC2(CC1)CCN(c1ccccc1)CC2
Measure Unit: %
max response: 3.97
--
Molecule: Cc1cccc(CNc2cc(-c3cccc(NS(C)(=O)=O)c3)ncn2)c1
Measure Unit: %
max response: -3.48
--
Molecule: c1ccc(C(c2ccccc2)N2CCCC3(CCNCC3)C2)cc1
Measure Unit: %
max response: -10.8
--
Molecule: N#Cc1cccc(-c2nc(Nc3ccncc3)c3ccccc3n2)c1
Measure Unit: %
max response: 11.4
--
Molecule: COc1ccc(-c2nc3cnc(N4CCN(C)CC4)nc3n(C)c2=O)cc1
Measure Unit: %
max response: 3.68
--
Molecule: COc1cc(C)c2c(c1C=O)Oc1c(c(C)c(O)c3c1C(O)OC3=O)OC2=O (stereo not drawn)
Measure Unit: %
max response: 11.3
--
Molecule: COc1ccccc1CN1CC2(CCN(C(=O)c3cc(C(F)(F)F)cc(C(F)(F)F)c3)CC2)C1
Measure Unit: %
max response: 10.9
--
Molecule: c1cncc(CNc2nc(-c3ccc4c(c3)OCO4)nc3ccccc23)c1
Measure Unit: %
max response: 18
--
Molecule: N#Cc1ccc(CN2CC[C@@]3(CCCN(C(=O)c4cnccn4)C3)C2)cc1
Measure Unit: %
max response: 18.2
--
Molecule: CN1CC[C@@]2(CCCN(C(=O)c3cccn3C)C2)C1
Measure Unit: %
max response: 4.15
--
Molecule: FC(F)(F)c1cc(CN2CCC3(CCNCC3)CC2)cc(C(F)(F)F)c1
Measure Unit: %
max response: -9.72
--
Molecule: Clc1cccc2c1CN(C1=NCCN1)C2
Measure Unit: %
max response: 20.6
--
Molecule: CN(C)Cc1ccccc1-c1cc(N(C)C)ncn1
Measure Unit: %
max response: 12
